experiment: Single 100 mg dose PK in SCD subjects; assay type: in vivo, human; conditions: human, whole blood, 100 mg, SCD subjects n=6, single 100 mg; blood; geometric mean
MEASURED PROPERTY: Cmax (ng/mL)
A number alone suffices; assume ng/mL.

[in] Item `O=Cc1c(O)cccc1OC[C@@H]1COCCN1C(=O)c1cccnc1CCO` has what recorded Cmax?
[out] 16200

---

test: MAD study in healthy volunteers: whole blood and plasma PK; assay type: in vivo, human; conditions: human; HV MAD Day 14, 25 mg QD maintenance; plasma; median
MEASURED PROPERTY: Tmax (h)
Express the result in h but write the number alone.

[in] Quick one: Tmax of O=Cc1c(O)cccc1OC[C@@H]1COCCN1C(=O)c1cccnc1CCO [Compound I] ?
[out] 1.5
